Measured values drawn from PubChem BioAssay AID1159585 for this set.

- TARGET OF ASSAY: Calcium-dependent protein kinase 1 (Plasmodium falciparum (isolate 3D7))
- PROCEDURE TEXT: PfCDPK1 kinase inhibitors, biochemical, TCAMS library (AID 1159585);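 note: inhibitors leave more ATP so luminescence rises with inhibition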
- ASSAY CONDITIONS: recombinant PfCDPK1, Kinase-Glo ATP depletion luminescence
pIC50: −log10 of the molar value.
READOUT NAME: pIC50

API: value(readout= pIC50, system= Calcium-dependent protein kinase 1 (Plasmodium falciparum (isolate 3D7)), query= NS(=O)(=O)CCc1cccc(Nc2nccc(-c3c(-c4cccc(NC(=O)c5c(F)cccc5F)c4)nn4ccccc34)n2)c1 )
7.70

Quick one: CS(=O)(=O)Cc1ccc(Nc2nccc(N3CCCc4cc(NC(=O)Nc5cccc(C(F)(F)F)c5)ccc43)n2)cc1
6.84

Moving on to the next compound: O=c1[nH]ccc2nc(N[C@@H]3CCCNC3)nc(Nc3ccc(S(=O)(=O)N4CCOCC4)cc3)c12
6.84

Same thing, different compound: Oc1cc(Nc2ccnc3cc(I)ccc23)c(F)cc1Cl
6.55

Repeat for the following compound: CN1CCN(CCCNCc2cccc(Nc3nccc(Nc4ccc(Oc5ccccc5)cc4)n3)c2)CC1
6.58

1. CN1CCN(c2ccc(Nc3nccc(-c4cnn5ncccc45)n3)cc2Cl)CC1
2. CCN(CC)CCCOc1ccc(Nc2nccc(-c3c(-c4cccc(NC(=O)c5c(F)cccc5F)c4)nn4ccccc34)n2)cc1F
Quick check, higher pIC50 between 1 and 2 ? # reply format: chosen label
1
(1: 6.63, 2: 6.37)

1. CN(C)Cc1ccc(-c2ccc3c(Nc4ccc(Cl)cc4F)ccnc3c2)o1
2. NCCCOc1cnc(-c2ccccc2)c2nc(-c3nonc3N)n(CCc3ccccc3)c12
For the two items 1 and 2 , which reports the higher pIC50 value? Respond using the label that marks the chosen record.
2

A. O=C(NCCN1CCC(c2ccncc2)CC1)c1cccc(Nc2nccc(Nc3ccc(Oc4ccccc4)cc3)n2)c1
B. COc1ccc(Nc2ncc(Cl)c(Nc3cccnc3C(N)=O)n2)cc1N1CCN(C)CC1
Among A and B , which shows a numerically higher pIC50 result? Mark your answer with the label of the selected entry.
A
(A: 6.66, B: 6.25)

A. COCCOc1ccc(Nc2nccc(-c3c(-c4cccc(NC(=O)c5c(F)cccc5F)c4)nn4ccccc34)n2)cc1Cl
B. COc1ccc(Nc2ncc(C#N)c(Nc3ccccc3C(N)=O)n2)cc1N1CCN(C)CC1
Given the listed items, does A or B have the lesser reported pIC50? Mark your selection by writing its label.
A
(A: 6.82, B: 7.05)

###

- TARGET OF ASSAY: Calcium-dependent protein kinase 1 (Plasmodium falciparum (isolate 3D7))
- PROCEDURE TEXT: PfCDPK1 kinase inhibitors, biochemical, TCAMS library (AID 1159585);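 note: inhibitors leave more ATP so luminescence rises with inhibition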
- ASSAY CONDITIONS: recombinant PfCDPK1, Kinase-Glo ATP depletion luminescence
pIC50: −log10 of the molar value.
READOUT NAME: pIC50

1. Fc1cc(Cl)ccc1Nc1ccnc2cc(-c3ccc(CNCCN4CCOCC4)o3)ccc12
2. CNCC(C)(C)c1nc(-c2ccc(Cl)c(O)c2)c(-c2ccncc2)[nH]1
3. CC(C)(CNCc1ccccc1)c1nc(-c2ccc(Cl)c(O)c2)c(-c2ccncc2)[nH]1
4. Oc1cc(-c2nc(C3(CNCc4ccc(Cl)cc4)CCCCC3)[nH]c2-c2ccncc2)ccc1Cl
Task field, ranking: reported pIC50, descending order. Answer format: list of labels, ordered as asked.
2, 3, 1, 4
(2: 7.31, 3: 6.72, 1: 6.42, 4: 6.07)

###

- TARGET OF ASSAY: Calcium-dependent protein kinase 1 (Plasmodium falciparum (isolate 3D7)) (UniProt P62344)
- Sequence (P62344 whole entry, looked up): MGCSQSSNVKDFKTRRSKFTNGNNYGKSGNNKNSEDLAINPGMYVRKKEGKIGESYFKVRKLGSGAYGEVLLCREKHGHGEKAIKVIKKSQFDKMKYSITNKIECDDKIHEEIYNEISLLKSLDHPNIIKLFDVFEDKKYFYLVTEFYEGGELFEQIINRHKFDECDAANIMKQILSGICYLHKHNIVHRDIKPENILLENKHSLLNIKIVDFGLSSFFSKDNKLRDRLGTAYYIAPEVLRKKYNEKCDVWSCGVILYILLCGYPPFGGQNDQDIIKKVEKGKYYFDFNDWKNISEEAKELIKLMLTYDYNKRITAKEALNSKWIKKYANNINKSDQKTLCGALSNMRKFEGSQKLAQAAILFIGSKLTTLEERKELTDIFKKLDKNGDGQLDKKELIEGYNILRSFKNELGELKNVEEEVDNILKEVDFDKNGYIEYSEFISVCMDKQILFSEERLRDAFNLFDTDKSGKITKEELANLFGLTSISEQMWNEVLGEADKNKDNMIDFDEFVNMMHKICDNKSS
- PROCEDURE TEXT: PfCDPK1 kinase inhibitors, biochemical, TCAMS library (AID 1159585);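 note: inhibitors leave more ATP so luminescence rises with inhibition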
- ASSAY CONDITIONS: recombinant PfCDPK1, Kinase-Glo ATP depletion luminescence
pIC50: −log10 of the molar value.
READOUT NAME: pIC50

State the recorded pIC50 for this entry: CN1CCN(c2ccc(Nc3ncc(Cl)c(Nc4cccnc4C(N)=O)n3)cc2)CC1
7.92

I. Cc1nnc(-c2cccc(Nc3ccnc4cc(-c5nccs5)ccc34)c2)o1
II. Cc1csc(-c2ncc(OC[C@@H](N)Cc3ccccc3)cc2-c2ccc3n[nH]c(C)c3c2)c1
III. c1cncc(Oc2ccc(Nc3ccnc4cc(-c5cccc(CNCCN6CCOCC6)c5)ccc34)cc2)c1
IV. CCn1c(-c2nonc2N)nc2c(-c3cccc(NC(=O)NC45CC6CC(CC(C6)C4)C5)c3)ncc(OCCCN)c21
V. CN(C)CCNCc1ccc(-c2ccc3c(Nc4ccc(Cl)cc4F)ccnc3c2)o1
Could you please sort these 5 entries by pIC50 from high to low? # the answer lists labels in the order requested
II, IV, I, V, III
(II: 7.36, IV: 7.08, I: 6.73, V: 6.43, III: 6.15)

1. Cc1nc(-c2cccc(Nc3ccnc4cc(-c5nccs5)ccc34)c2)no1
2. O=C(Nc1cccc(-c2nn3ccccc3c2-c2ccnc(Nc3ccc(NCCCN4CCOCC4)c(F)c3)n2)c1)c1c(F)cccc1F
3. CS(=O)(=O)Cc1ccc(Nc2nccc(-c3c(-c4cccc(NC(=O)c5c(F)cccc5F)c4)nn4ncccc34)n2)cc1
Order by pIC50, ascending. Please express your ranking as an ordered list of the labels.
1, 2, 3
(1: 6.72, 2: 7.42, 3: 7.96)

a. CC(C)(CNCc1ccc(Cl)cc1)c1nc(-c2ccc(Cl)c(O)c2)c(-c2ccncc2)[nH]1
b. CCn1c(-c2nonc2N)nc2c(-c3ccccc3)ncc(OCCCNCCCN3CCOCC3)c21
c. CNC(=O)c1ccccc1Nc1nc(Nc2cccc(CS(C)(=O)=O)c2)ncc1C
d. Cc1cccc(Nc2nc(N[C@@H]3CCCNC3)nc3cc[nH]c(=O)c23)c1
# rank by pIC50, ascending (min first) Give the labels in the order specified.
a, c, b, d

P. NC(=O)c1ccccc1Nc1nc(Nc2ccn[nH]2)ncc1Cl
Q. CC(C)(CNC(=O)C1CCN(CCOc2ccc(F)c(F)c2)CC1)c1nc(-c2ccc(Cl)c(O)c2)c(-c2ccncc2)[nH]1
Of the two listed items, which has the higher pIC50? First: P Second: Q Kindly state the label of the option you pick.
P

a. CN1CCN(Cc2ccc(-c3ccc4c(Nc5cc(O)c(Cl)cc5F)ccnc4c3)o2)CC1
b. O=C(NCCN1CCCC1)c1cccc(Nc2nccc(Nc3ccc(Oc4ccccc4)cc3)n2)c1
c. CCn1c(-c2nonc2N)nc2c(-c3cccc(NC(=O)Nc4ccc(Cl)cc4)c3)ncc(OCCCN)c21
d. Oc1cccc(Nc2ccnc3cc(-c4ccncc4)ccc23)c1
e. CC(C)(CN)c1cc(-c2ccc(Cl)c(O)c2)c(-c2ccncc2)o1
Rank items: key pIC50, increasing. Give the labels in the order requested.
d, b, a, c, e

P. Cc1ccc(Nc2nccc(Nc3ccc4c(c3)nc(Nc3cc(C(C)(C)C)on3)n4C)n2)cc1S(C)(=O)=O
Q. Cc1ccc(O)cc1Nc1ccnc2cc(-c3cccc(CNCCS(C)(=O)=O)c3)ccc12
R. CN1CCN(Cc2ccc(-c3ccc4c(Nc5ccc(Cl)cc5F)ccnc4c3)o2)CC1
S. CS(=O)(=O)CCNCc1cccc(-c2ccc3c(Nc4ccc(Oc5cccnc5)cc4)ccnc3c2)c1
Would you mind ranking these compounds by ascending pIC50? List the labels, following the order given in the request.
S, R, P, Q
(S: 6.02, R: 6.39, P: 6.62, Q: 6.90)

I. O=C(NCCN1CCC(c2ccncc2)CC1)c1ccc(Nc2nccc(Nc3ccc(Oc4ccccc4)cc3)n2)cc1
II. COc1ccc(-c2cnc3[nH]cc(-c4ccncc4)c3c2)cc1OC
Between item I and item II , which reported pIC50 is smaller? # reply format: chosen label
II
(II: 6.41, I: 6.87)

1. CCn1c(-c2nonc2N)nc2c(-c3cccc(NC(=O)Nc4ccc5c(c4)CCC5)c3)ncc(OCCCN)c21
2. CN1CCN(Cc2cccc(-c3ccc4c(Nc5cc(O)c(Cl)cc5F)ccnc4c3)c2)CC1
Exercise: compare 1 and 2 ; which one has the greater pIC50? Lab note: record the label of whichever item you select.
1

###

- TARGET OF ASSAY: Calcium-dependent protein kinase 1 (Plasmodium falciparum (isolate 3D7))
- PROCEDURE TEXT: PfCDPK1 kinase inhibitors, biochemical, TCAMS library (AID 1159585);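 note: inhibitors leave more ATP so luminescence rises with inhibition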
- ASSAY CONDITIONS: recombinant PfCDPK1, Kinase-Glo ATP depletion luminescence
IC50 reference

Below: 2 compounds and their reported IC50.
Please state recorded IC50 (tested on Calcium-dependent protein kinase 1 (Plasmodium falciparum (isolate 3D7))) of COc1ccc(-c2cnc3ccc(NCCCO)nn23)cc1OC
361 nM

Same read-out for CC(C)(CNC(=O)[C@H]1CCCCN1)c1nc(-c2ccc(Cl)c(O)c2)c(-c2ccncc2)[nH]1 ?
164 nM

Next, consider the following compound.
// lookup IC50 | system=Calcium-dependent protein kinase 1 (Plasmodium falciparum (isolate 3D7)) | key= CN(C)CCOc1ccc(-c2cc(-c3ccnc(N)n3)c(-c3ccc(Cl)c(O)c3)o2)cc1
684 nM
